assay.target: UniProt:P21588
Sequence (P21588 whole entry): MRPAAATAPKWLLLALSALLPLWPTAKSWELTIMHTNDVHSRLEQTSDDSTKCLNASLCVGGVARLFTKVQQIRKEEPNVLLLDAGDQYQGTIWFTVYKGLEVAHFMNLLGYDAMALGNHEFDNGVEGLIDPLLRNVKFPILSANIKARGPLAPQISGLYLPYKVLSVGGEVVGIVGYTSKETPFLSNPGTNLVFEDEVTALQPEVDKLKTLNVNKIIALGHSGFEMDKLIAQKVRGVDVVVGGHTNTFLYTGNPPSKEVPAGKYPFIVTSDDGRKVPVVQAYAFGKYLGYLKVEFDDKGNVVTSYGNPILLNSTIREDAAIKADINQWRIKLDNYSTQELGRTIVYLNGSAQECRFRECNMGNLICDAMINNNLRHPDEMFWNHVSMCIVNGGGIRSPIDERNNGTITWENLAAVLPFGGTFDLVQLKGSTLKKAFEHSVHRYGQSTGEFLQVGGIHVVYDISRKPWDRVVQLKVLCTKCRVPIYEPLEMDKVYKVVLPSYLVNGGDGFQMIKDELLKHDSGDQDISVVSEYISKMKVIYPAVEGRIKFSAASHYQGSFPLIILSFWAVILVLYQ
assay.info: Inhibition of rat Ecto-5'-nucleotidase transfected in COS7 cells preincubated for 10 mins followed by AMP addition measured after 10 mins
quantity.kind: log10(Ki) (log10 of the value in nM)

| compound | log10(Ki) |
| --- | --- |
| CCOC1Oc2ccc(F)cc2C(=O)/C1=C\Nc1ccc(S(N)(=O)=O)cc1 (racemic) | 2.00 |
| O=c1c(C2Nc3ccccc3S(=O)(=O)N2)coc2ccc(F)cc12 (racemic) | 2.11 |
| CC(C)OC1Oc2ccccc2C(=O)/C1=C\Nc1ccc(S(N)(=O)=O)cc1 (racemic) | 1.41 |
| COC1Oc2c(Cl)cc(Cl)cc2C(=O)/C1=C\Nc1cccc(S(N)(=O)=O)c1 (racemic) | 2.36 |
| COC1Oc2c(Cl)cc(Cl)cc2C(=O)/C1=C\Nc1ccc(S(N)(=O)=O)cc1 (racemic) | 2.67 |
| CCOC1Oc2ccc(F)cc2C(=O)/C1=C\Nc1cccc(S(N)(=O)=O)c1 (racemic) | 1.67 |
| CCOC1Oc2c(Br)cc(Br)cc2C(=O)/C1=C\Nc1ccccc1S(N)(=O)=O (racemic) | 3.28 |
